Entries and their switch fluorescence ratio values follow.
- System: ATP;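 note: ATP exposure 15 min at 22 °C before imaging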
- procedure details: switch fluorescence ratio, 500 uM ATP over buffer (Cy3 cluster intensity, sum of 5 cycles each) (fold (ratio)); higher = stronger signal-on switching upon ATP binding; sequences stand for … in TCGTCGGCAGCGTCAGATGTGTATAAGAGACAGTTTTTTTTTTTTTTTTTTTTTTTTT…TC
- reported conditions: aptamer strand: ATP DNA aptamer (quencher-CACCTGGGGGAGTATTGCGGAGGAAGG + anchor), 100 nM annealed; ATP concentration: 500 uM
value type: switch fluorescence ratio

query sequence: ACTTTGTCTG
value type: switch fluorescence ratio
value observed: 0.991

query sequence: GAAATGTTAG
value type: switch fluorescence ratio
value observed: 0.966

query sequence: CAGTTTTGAT
value type: switch fluorescence ratio
value observed: 0.998

query sequence: ATGGGCTGGG
value type: switch fluorescence ratio
value observed: 0.997

query sequence: TGCGTTACAG
value type: switch fluorescence ratio
value observed: 1.01

query sequence: AGTAAGATAA
value type: switch fluorescence ratio
value observed: 0.986

query sequence: GTACTATTAT
value type: switch fluorescence ratio
value observed: 1.04

query sequence: TCAGGCTAAC
value type: switch fluorescence ratio
value observed: 1.01

query sequence: TATAAATGGG
value type: switch fluorescence ratio
value observed: 1

query sequence: CTAAGGGGAT
value type: switch fluorescence ratio
value observed: 1.09

query sequence: TGTAATCTTC
value type: switch fluorescence ratio
value observed: 1.01

query sequence: GCTATCTGCC
value type: switch fluorescence ratio
value observed: 1.08

query sequence: GTGTGTGGTC
value type: switch fluorescence ratio
value observed: 1

query sequence: TGAGTTAGGG
value type: switch fluorescence ratio
value observed: 0.985

query sequence: TCATAGGATT
value type: switch fluorescence ratio
value observed: 0.995
